System: WPMY1-ACTB-RAB5A
Assay: phenotypically active (imaging signature differs from DMSO and reproducible) at any of 0.3-9 uM (binary (1 = active, 0 = inactive)); higher = active
Conditions: treatment time: 24 h
Structures can show the parent of a compound that is named as a salt.

- compound: "CN(C)CCCN1c2ccccc2Sc2ccc(C(F)(F)F)cc21"
  phenotypically active: 1
- compound: "COc1cc2c(cc1O)CC[C@@H]1[C@@H]2CC[C@]2(C)[C@@H](O)CC[C@@H]12"
  phenotypically active: 1
- compound: "CCN1CCN(c2cc(-c3ccc(F)cc3)c3c(n2)CCCCCC3)CC1"
  phenotypically active: 1
- compound: "CC(C)(Sc1ccc(CCN(CCCCC2CCCCC2)C(=O)NC2CCCCC2)cc1)C(=O)O"
  phenotypically active: 0
- compound: "COc1cc2c(cc1OC)-c1c/c(=N/c3c(C)cc(C)cc3C)n(C)c(=O)n1CC2 [Trequinsin hydrochloride]"
  phenotypically active: 1
- compound: "COc1c(Cl)cc2c([nH]c3cnccc32)c1NC(=O)c1cccnc1C [ML 120B dihydrochloride]"
  phenotypically active: 0
- compound: "CCc1cncnc1N1CCN(Cc2nc3cc(C(F)(F)F)ccc3[nH]2)CC1"
  phenotypically active: 0
- compound: "Clc1ccc(C2(c3ccc(-c4cn[nH]c4)cc3)CCNCC2)cc1"
  phenotypically active: 1
- compound: "COCC(=O)O[C@]1(CCN(C)CCCc2nc3ccccc3[nH]2)CCc2cc(F)ccc2[C@@H]1C(C)C"
  phenotypically active: 1
- compound: "CC(=O)[C@H]1CC[C@H]2[C@@H]3C=CC4=CC(=O)CC[C@@]4(C)[C@@H]3CC[C@]12C"
  phenotypically active: 0
- compound: "O[C@H](CNC[C@H](O)[C@@H]1CCc2cc(F)ccc2O1)[C@@H]1CCc2cc(F)ccc2O1"
  phenotypically active: 1
- compound: "CCc1ccc(/C=C/C(=O)Nc2ccc(C(C)=O)cc2)o1"
  phenotypically active: 0
- compound: "C=CC(=O)Nc1cccc(Nc2nc(Nc3ccc(OCCOC)cc3)ncc2F)c1"
  phenotypically active: 1
- compound: "FC(F)OC(F)C(F)(F)F (stereo not drawn)"
  phenotypically active: 0
- compound: "Nn1nnc2ccccc21"
  phenotypically active: 0
- compound: "C[C@](N)(Cc1ccc(O)c(O)c1)C(=O)O"
  phenotypically active: 0
- compound: "CN(C)CC(=O)N1CCC[C@@H](n2nc(-c3ccc(Oc4ccccc4)cc3)c3c(N)ncnc32)C1"
  phenotypically active: 1
- compound: "COc1cc([C@@H]2c3cc4c(cc3[C@@H](O[C@@H]3O[C@@H]5CO[C@@H](c6cccs6)O[C@H]5[C@H](O)[C@H]3O)[C@H]3COC(=O)[C@H]23)OCO4)cc(OC)c1O [teniposide]"
  phenotypically active: 1

Data provenance is the supplement of paper PMC7411054.
